Tested on: D-VEGF
Experiment: SPR affinity measurements of GB1 peptidic compounds on immobilized D-VEGF
Type: binding
Details: Table 2; GB1-E01 double mutants; target D-VEGF
Listed here: items and their measured Koff.

molecule	Koff
E01-D39F/D27E: E01 double mutant D39F/D27E (protein) MKIEEHHHHHHHHHHGGSTYKLILNGKTLKGETTTEAVDVYDAFEVFFVYAASNFSFFDDWTYDDATKTFTVTEGGSDK	0.00158 s⁻¹
E01-D39F: E01 point mutant D39F; scaffold for double mutants (protein) MKIEEHHHHHHHHHHGGSTYKLILNGKTLKGETTTEAVDVYDAFDVFFVYAASNFSFFDDWTYDDATKTFTVTEGGSDK	0.00132 s⁻¹
